- Test system: HCC1569;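 note: TDF is a line of transformed human dermal fibroblasts of mesenchymal origin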
- experiment description: H1.0 immunofluorescence intensity relative to DMSO (% of DMSO); higher = stronger H1.0 induction, active = 140 or more
- applied conditions: concentration: 10 µM; 24 h
H1.0 immunofluorescence intensity below 100 gives FALSE; H1.0 immunofluorescence intensity at or above it gives TRUE.

Incoming: Reported H1.0 immunofluorescence intensity reaches at least 100 for O=C1C=C(CO)OCC1=O [5-hydroxy-2-(hydroxymethyl)-4H-pyran-4-one] ?
Outgoing: FALSE

Incoming: Reported H1.0 immunofluorescence intensity reaches at least 100 for Cn1cnc2c(NCc3ccccc3)nc(NCCO)nc21 ?
Outgoing: TRUE

Incoming: Entry CC1OC(OC2C(Oc3cc(O)c4c(c3)OC(c3ccc(O)cc3)CC4=O)OC(CO)C(O)C2O)C(O)C(O)C1O (configuration not stated) : is its H1.0 immunofluorescence intensity no less than 100?
Outgoing: FALSE

Incoming: Textbook exercise: given the entry Oc1cc(O)c2c(c1)OC(c1ccc(O)c(O)c1)C(O)C2 (single isomer, unassigned; (+)) [(+)-Catechine] , state whether its H1.0 immunofluorescence intensity is greater than or equal to 100.
Outgoing: FALSE

Incoming: For this compound, is measured H1.0 immunofluorescence intensity 100 or higher? CN1CCCC1c1cccnc1 (single isomer, unassigned; (-)) [(-)-Nicotine]
Outgoing: FALSE

Incoming: Record CC(=O)SCC[N+](C)(C)C.[Cl-] [Acetylthiocholine chloride] ; criterion: H1.0 immunofluorescence intensity no lower than 100. Met?
Outgoing: FALSE

Incoming: Assess whether reported H1.0 immunofluorescence intensity for O=c1ncnc2[nH][nH]cc1-2 sits at 100 or higher.
Outgoing: FALSE

Incoming: Does O=C1NC(=O)C(=Cc2ccc3nccnc3c2)S1 have a reported H1.0 immunofluorescence intensity of at least 100?
Outgoing: TRUE

###

- Tested on: TDF;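 note: TDF denotes transformed human dermal fibroblasts of mesenchymal origin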
- experiment description: cell number relative to DMSO (% of DMSO); higher = more cells (less growth inhibition / toxicity)
- applied conditions: concentration: 10 µM; 24 h
measured endpoint: cell number
Just the number, please, no unit attached.

Incoming: Fill in cell number for record O=C(O)CCC(=O)c1ccc(-c2ccccc2)cc1 [Fenbufen]
Outgoing: 103

Incoming: Report cell number, nothing else, for this compound: Br.Br.N=C(N)SCCc1cnc[nH]1 [Imetit dihydrobromide]
Outgoing: 103

Incoming: Supply measured cell number of Cl.Nc1c2c(nc3ccccc13)CCCC2 [9-Amino-1,2,3,4-tetrahydroacridine hydrochloride] in your reply.
Outgoing: 103

Incoming: Retrieve cell number measured for COc1ccc(CC2c3cc(OC)c(OC)cc3CC[N+]2(C)CCC(=O)OCCCCCOC(=O)CC[N+]2(C)CCc3cc(OC)c(OC)cc3C2Cc2ccc(OC)c(OC)c2)cc1OC.O=S(=O)([O-])c1ccccc1.O=S(=O)([O-])c1ccccc1 (stereo not given) [Atracurium besylate] and print it.
Outgoing: 103

Incoming: Complete the entry with cell number for CCC(CO)Nc1nc(NCc2ccccc2)c2ncn(C(C)C)c2n1 (stereo not given) [Roscovitine]
Outgoing: 99

###

- Test system: TDF;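 note: TDF denotes transformed human dermal fibroblasts of mesenchymal origin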
- experiment description: cell number relative to DMSO (% of DMSO); higher = more cells (less growth inhibition / toxicity)
- applied conditions: concentration: 10 µM; 24 h
measured endpoint: cell number
API doc: respond with a numeric literal and nothing else, no unit.

Incoming: Give cell number; test system TDF; molecule O=C(O)COC(=O)Cc1ccccc1Nc1c(Cl)cccc1Cl [Aceclofenac];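 note: TDF denotes transformed human dermal fibroblasts of mesenchymal origin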
Outgoing: 101

Incoming: Report cell number from TDF testing of CC(C)COCC(CN(Cc1ccccc1)c1ccccc1)N1CCCC1.Cl (stereo not drawn) [Bepridil.HCl]
Outgoing: 103

Incoming: // fetch cell number; item: C=C1C(=O)C23C(O)C1CCC2C12COC3(O)C(O)C1C(C)(C)CCC2O (stereo not drawn) [Rubescensin A] ; system: TDF;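 note: TDF denotes transformed human dermal fibroblasts of mesenchymal origin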
Outgoing: 99
